Tested on: maximal electroshock seizure (MES)
Protocol Description: Maximal electroshock seizure test (MES), rats, oral
Protocol Conditions: Rattus norvegicus, po, 1 h, read-out: Anti-MES activity (number of animals protected/number of animals tested)
Field: responders at 30 mg/kg. Provide a value for each of the compounds that follow.
Don't forget the unit after the value.

Note to self: responders at 30 mg/kg recorded for CCC(CC)C(=O)Nc1ccc(S(N)(=O)=O)cc1 was 100%

Please fill in: responders at 30 mg/kg reported for CC(C)(C)CC(=O)Nc1ccc(S(N)(=O)=O)cc1 = 75%

According to the records, this compound CC(C)(C)C(=O)Nc1ccc(S(N)(=O)=O)cc1 displays responders at 30 mg/kg of 75%

Note to self: responders at 30 mg/kg recorded for CCC(CC)C(=O)NCc1ccc(S(N)(=O)=O)cc1 was 50%

The reported value for CCC(C)C(CC)C(=O)Nc1ccc(S(N)(=O)=O)cc1 (stereo not shown) in terms of responders at 30 mg/kg is 75%

Notebook: CCCC(C(=O)Nc1ccc(S(N)(=O)=O)cc1)C(C)CC (stereo not shown) , responders at 30 mg/kg read as 25%

Consider CCC(CC)C(=O)NCCc1ccc(S(N)(=O)=O)cc1 . Its measured responders at 30 mg/kg is 75%

Record CC(C)(C)CC(=O)NCc1ccc(S(N)(=O)=O)cc1 , field responders at 30 mg/kg: 25%

The compound listed as NS(=O)(=O)c1ccc(NC(=O)Cc2ccccc2)cc1 has a reported responders at 30 mg/kg of 100%

Entry under test: CCC(C)C(=O)Nc1ccc(S(N)(=O)=O)cc1 (stereo not shown) . Its responders at 30 mg/kg was 100%

* * *

Test system: maximal electroshock seizure (MES)
Protocol Description: Maximal electroshock seizure test (MES), rats, oral
Protocol Conditions: Rattus norvegicus, po, 1 h, read-out: Anti-MES activity (number of animals protected/number of animals tested)
Assay Endpoint: responders at 30 mg/kg (%)
Report only the number, with the unit % understood.

responders at 30 mg/kg reading for CCCCC(CC)C(=O)Nc1ccc(S(N)(=O)=O)cc1 (stereo not shown) [Compound 25] : 100

Record CC(C)C(C(=O)Nc1ccc(S(N)(=O)=O)cc1)C(C)C [Compound 13] . Reported responders at 30 mg/kg: 0

Lab book: responders at 30 mg/kg of CCCC(C)C(=O)Nc1ccc(S(N)(=O)=O)cc1 (stereo not shown) [Compound 16] noted as 100

Reported responders at 30 mg/kg for CCCC(C(=O)Nc1ccc(S(N)(=O)=O)cc1)C(C)C (stereo not shown) [Compound 18] was 100

* * *

System: subcutaneous metrazol (pentylenetetrazol) seizure
Protocol Description: Subcutaneous metrazol seizure threshold test (scMet), mice, intraperitoneal
Assay type: in vivo
Protocol Conditions: ip, 100 mg/kg, 4 h after administration
Assay Endpoint: scMet (number of animals protected/number of animals tested)

scMet (number of animals protected/number of animals tested) reading for CCCC(C(=O)Nc1ccc(S(N)(=O)=O)cc1)C(C)(C)C (centres unmarked) : 0/1 0/1 0/1

scMet (number of animals protected/number of animals tested) for CCC(CC)C(=O)NCCc1ccc(S(N)(=O)=O)cc1 is 0/1 0/1 0/1

Lab book: scMet (number of animals protected/number of animals tested) of CCC(C)C(CC)C(=O)Nc1ccc(S(N)(=O)=O)cc1 (centres unmarked) noted as 0/1 0/1 0/1

Value of measured scMet (number of animals protected/number of animals tested) for the entry CC(C)(C)CC(=O)Nc1ccc(S(N)(=O)=O)cc1 : 0/1 0/1 0/1

Please fill in: scMet (number of animals protected/number of animals tested) reported for CCC(C)C(=O)Nc1ccc(S(N)(=O)=O)cc1 (centres unmarked) = 0/1 0/1 0/1

* * *

Record form. Attribute: ED50. Fill in for each entry.
Tested on: maximal electroshock seizure (MES)
Protocol Description: Maximal electroshock seizure test (MES), rats, oral;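 note: adult male Sprague-Dawley rats received test compounds by mouth as a suspension in 0.5% methylcellulose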
Protocol Conditions: Rattus norvegicus, po, read-out: MES ED50, rats dosed orally; interval in parentheses = 95% confidence interval
Field: numeric (mg/kg). Do not append units.

Case CCC(CC)C(=O)NCc1ccc(S(N)(=O)=O)cc1 [Compound 28] , maximal electroshock seizure (MES), ED50 recorded as 24.7

Record CCCC(C(=O)Nc1ccc(S(N)(=O)=O)cc1)C(C)C (stereo not shown) [Compound 18] / maximal electroshock seizure (MES), ED50 recorded as 41.5

ED50 for maximal electroshock seizure (MES) with input NS(=O)(=O)c1ccc(NC(=O)Cc2ccccc2)cc1 [Compound 30] equals 16.1

The measured ED50 that CCCCC(CC)C(=O)Nc1ccc(S(N)(=O)=O)cc1 (stereo not shown) [Compound 25] showed for maximal electroshock seizure (MES) is 23.9

Result for CC(C)(C)C(=O)Nc1ccc(S(N)(=O)=O)cc1 [Compound 9] , tested on maximal electroshock seizure (MES), ED50: 42

* * *

Test system: maximal electroshock seizure (MES)
Protocol Conditions: male, Sprague-Dawley, rat, in vivo, po
Assay Endpoint: PI, protective index (PI = TD50/ED50) in the MES test

So for CCCC(C)C(=O)Nc1ccc(S(N)(=O)=O)cc1 (centres unmarked) [Compound 16] , the logged PI, protective index (PI = TD50/ED50) in the MES test turned out to be >46.3

PI, protective index (PI = TD50/ED50) in the MES test reported for this compound NS(=O)(=O)c1ccc(NC(=O)Cc2ccccc2)cc1 [Compound 30] : >31.0

PI, protective index (PI = TD50/ED50) in the MES test reading for CC(C)(C)C(=O)Nc1ccc(S(N)(=O)=O)cc1 [Compound 9] : >11.8

The recorded PI, protective index (PI = TD50/ED50) in the MES test for entry CCCC(C(=O)Nc1ccc(S(N)(=O)=O)cc1)C(C)C (centres unmarked) [Compound 18] equals >12.0

Lookup result for CCCCC(CC)C(=O)Nc1ccc(S(N)(=O)=O)cc1 (centres unmarked) [Compound 25] ; measured PI, protective index (PI = TD50/ED50) in the MES test: >21.0

* * *

Test system: subcutaneous metrazol (pentylenetetrazol) seizure
Protocol Description: Subcutaneous metrazol seizure threshold test (scMet), mice, intraperitoneal
Format: in vivo
Protocol Conditions: ip, 100 mg/kg, 4 h after administration
Provide the recorded scMet (number of animals protected/number of animals tested) for the entries that follow.

response.value for CCCCC(CC)C(=O)Nc1ccc(S(N)(=O)=O)cc1 (stereo not shown) [Compound 25] (field: scMet (number of animals protected/number of animals tested)) = 0/1 0/1 0/1

# scMet (number of animals protected/number of animals tested) of CC(C)(C)CC(=O)NCc1ccc(S(N)(=O)=O)cc1 [Compound 27] = 0/1 0/1 0/1

scMet (number of animals protected/number of animals tested) measured on CCCC(C(=O)Nc1ccc(S(N)(=O)=O)cc1)C(C)CC (stereo not shown) [Compound 21] = 0/1 0/1 0/1

# compound CC(C)(C)C(=O)NCc1ccc(S(N)(=O)=O)cc1 [Compound 26] ; its scMet (number of animals protected/number of animals tested) = 0/1 0/1 0/1

# scMet (number of animals protected/number of animals tested) (compound: CC(C)(C)C(=O)Nc1ccc(S(N)(=O)=O)cc1 [Compound 9] ) is 0/1 0/1 0/1

Kindly note the recorded scMet (number of animals protected/number of animals tested) for CCC(CC)C(=O)Nc1ccc(S(N)(=O)=O)cc1 [Compound 11] , which is 0/1 0/1 0/1

The value of scMet (number of animals protected/number of animals tested) measured for the compound CC(C)C(C(=O)Nc1ccc(S(N)(=O)=O)cc1)C(C)C [Compound 13] turned out to be 0/1 0/1 0/1

scMet (number of animals protected/number of animals tested) recorded for this compound, CCC(CC)C(=O)NCc1ccc(S(N)(=O)=O)cc1 [Compound 28] , is 0/1 0/1 0/1

Data point: CCCC(C(=O)Nc1ccc(S(N)(=O)=O)cc1)C(C)C (stereo not shown) [Compound 18] ; scMet (number of animals protected/number of animals tested) = 0/1 0/1 0/1

Lab book: scMet (number of animals protected/number of animals tested) of CCC(C(=O)Nc1ccc(S(N)(=O)=O)cc1)C(C)(C)C (stereo not shown) [Compound 12] noted as 0/1 0/1 0/1

* * *

Tested on: subcutaneous metrazol (pentylenetetrazol) seizure
Protocol Description: Subcutaneous metrazol seizure threshold test (scMet), mice, intraperitoneal;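 note: adult male CF no. 1 albino mice weighing 18-25 g, dosed intraperitoneally with compounds suspended in 0.5% methylcellulose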
Format: in vivo
Protocol Conditions: ip, 100 mg/kg, 4 h after administration
Hi there, I'd appreciate the recorded scMet (number of animals protected/number of animals tested) for every entry that follows.

The measured scMet (number of animals protected/number of animals tested) that CC(C)C(C(=O)Nc1ccc(S(N)(=O)=O)cc1)C(C)(C)C (centres unmarked) showed for subcutaneous metrazol (pentylenetetrazol) seizure is 0/1 0/1 0/1

// molecule NS(=O)(=O)c1ccc(NC(=O)Cc2ccccc2)cc1 , assay subcutaneous metrazol (pentylenetetrazol) seizure, scMet (number of animals protected/number of animals tested) value: 0/1 0/1 0/1

subcutaneous metrazol (pentylenetetrazol) seizure assay, molecule CCCC(C)C(=O)Nc1ccc(S(N)(=O)=O)cc1 (centres unmarked) , recorded scMet (number of animals protected/number of animals tested) = 0/1 0/1 0/1

Lab entry: subcutaneous metrazol (pentylenetetrazol) seizure assay, molecule CCC(C)CC(=O)Nc1ccc(S(N)(=O)=O)cc1 (centres unmarked) , scMet (number of animals protected/number of animals tested) = 0/1 0/1 0/1

With subcutaneous metrazol (pentylenetetrazol) seizure as the test system, CCCC(CC)C(=O)Nc1ccc(S(N)(=O)=O)cc1 (centres unmarked) showed scMet (number of animals protected/number of animals tested) of 0/1 0/1 0/1
